Origin of the recorded values: PubChem BioAssay AID743396

Test Name: compound fluorescence in GFP channel, mTEFS cells – imaging, mTEFS fibroblasts, cherry-pick, artefact control for X-chromosome reactivation project, dose response (AID 743396);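 for % fluorescent cells increase: raw share of Hoechst-counted cells scored GFP positive without control normalization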
Stated Conditions: mTEFS fibroblasts autofluorescence, GFP-channel imaging, 3 days; at 19.5 µM (top of the series); cells pretreated with 5-aza-dC

Structure As Smiles	Uom	% fluorescent cells increase
O=C(NCc1ccccc1)c1ccccc1Br	%	3.38
CCOC(=O)C1CCN(c2c(NCc3ccc(C(=O)NC4CCCC4)cc3)c(=O)c2=O)CC1	%	0
NNC(=O)/C(=C\c1ccc(Br)cc1)NC(=O)c1cccs1	%	0.233
C[C@@H]1C[C@H]2[C@@H]3CCC4=CC(=O)C=C[C@]4(C)[C@@]3(F)[C@@H](O)C[C@]2(C)[C@H]1C(=O)CO	%	0
Cc1cccc(-c2ccc([C@H]3[C@H](CO)N4CCCCN(C(=O)NC(C)C)C[C@@H]34)cc2)c1	%	-0.166

* * *

Test Name: compound fluorescence in GFP channel, mTEFS cells – imaging, mTEFS fibroblasts, cherry-pick, artefact control for X-chromosome reactivation project, dose response (AID 743396)
Stated Conditions: mTEFS fibroblasts autofluorescence, GFP-channel imaging, 3 days; at 19.5 µM (top of the series); cells pretreated with 5-aza-dC
Recorded Endpoint: % fluorescent cells increase (%)

Molecule	Recorded Measurement
CC(=O)NC(c1ccc(Cl)cc1)c1c(O)ccc2ccc(O)cc12 (stereo unspecified)	0.001
CCOC(=O)Cc1csc(NC(=O)Nc2ccc(F)cc2)n1	0
Cc1cc(=O)[nH]c(N/N=C/c2cc(C)n(-c3ccccc3)c2C)n1	0
Cc1ccc(Cn2cc(/C=N/Nc3ccc([N+](=O)[O-])cn3)c3ccccc32)cc1	0.941
Cc1cc2c(NC(=O)Nc3ccc(C(C)(C)C)cc3)cccc2nn1	0.237
CC(=O)c1ccc2c(c1)OCCOCCOCCOCCOCCO2	0.551
C[C@H]1CN([C@@H](C)CO)C(=O)c2cc(NC(=O)CCCCCC(=O)Nc3ccccc3N)ccc2O[C@H]1CN(C)C(=O)Nc1ccccc1	0.017
CCCCn1nnnc1C(c1ccccc1)N1CCN(c2ccc(C)cc2)CC1 (stereo unspecified)	-0.003
O=C(CCC(=O)Nc1cccnc1)Nc1cccnc1	0.042
O=C(CC1C(=O)Nc2ccccc2N1CC(=O)N1CCCC1)Nc1ccc(Br)cc1 (stereo unspecified)	0
CSc1ccc(CNCC2CCCO2)cc1 (stereo unspecified)	0.293

* * *

Test Name: compound fluorescence in GFP channel, mTEFS cells – imaging, mTEFS fibroblasts, cherry-pick, artefact control for X-chromosome reactivation project, dose response (AID 743396);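 for % fluorescent cells increase: raw share of Hoechst-counted cells scored GFP positive without control normalization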
Stated Conditions: mTEFS fibroblasts autofluorescence, GFP-channel imaging, 3 days; at 19.5 µM (top of the series); cells pretreated with 5-aza-dC
Recorded Endpoint: % fluorescent cells increase (%)

Compound	Recorded Measurement
O=C(N/N=C/c1ccc(O)c2ncccc12)c1cccc(Br)c1	-0.003
C[C@@H]1CN([C@@H](C)CO)C(=O)c2cc(NS(C)(=O)=O)ccc2O[C@@H](C)CCCCO[C@@H]1CN(C)Cc1ccccc1	0.259
C[C@@H]1CN(C)C(=O)Cc2cc(N(C)C)ccc2O[C@@H]1CN(C)S(C)(=O)=O	0.125
CS(=O)(=O)c1ccc(S(=O)CC(=O)OCc2ccccc2)c([N+](=O)[O-])c1 (centres undefined)	0
Cc1ccc(C)c(CSC2=NN3CCCC(=O)N=C3S2)c1	-0.006
C[C@@H]1CN([C@H](C)CO)C(=O)c2cc(NS(=O)(=O)c3ccccc3)ccc2O[C@@H](C)CCCCO[C@@H]1CN(C)Cc1ccc2c(c1)OCO2	3.87
COC(=O)c1cc(NS(=O)(=O)c2ccc(NC(C)=O)cc2)ccc1Cl	0
CN(C)CCCNC(=O)/C(=C\c1ccc(-c2ccc(Br)cc2)o1)NC(=O)c1ccccc1	-0.006
CCn1c(Cl)c(C=O)s/c1=N\S(=O)(=O)c1ccccc1	0

* * *

Tested on: mTEFS fibroblasts autofluorescence, GFP-channel imaging, 3 days
Test Name: compound fluorescence in GFP channel, mTEFS cells – imaging, mTEFS fibroblasts, cherry-pick, artefact control for X-chromosome reactivation project, dose response (AID 743396)
Stated Conditions: cells pretreated with 5-aza-dC
Calls of active or inactive are those of the source.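 How the source made its calls: active means fitted curve reaches a 40% rise in fluorescent cells at or below the top valid dose; inactive means opposite-direction effect, or the rest.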
Classes used: active, inactive

Molecule	Class Name
Cc1ccc2cc3c(N)c(C(=O)Nc4c(C)[nH]c(=O)[nH]c4=O)sc3nc2c1	inactive
COc1ccc(-[n+]2c(C)cc(/C=C3\Sc4ccccc4N3C)cc2C)cc1	active
Cc1cccc2cc3c(N)c(C(=O)N4CCc5ccccc54)sc3nc12	active
Nc1c(C(=O)Nc2ccc(S(=O)(=O)N3CCCC3)cc2)sc2nc3cc4c(cc3cc12)CCC4	active
O=C(N/N=C\c1c(O)ccc2ccccc12)c1ccc(S(=O)(=O)N2CCCCC2)cc1	active
CCc1cccc2cc3c(N)c(C(=O)Nc4ccc(S(=O)(=O)N5CCCC5)cc4)sc3nc12	active
CCN1C(=O)[C@@H]2Cc3c([nH]c4ccccc34)C(c3cc(OC)c(OC)c(OC)c3)N2C1=S (some centres not stated)	inactive
COc1ccc(N(C)S(=O)(=O)c2cccc(C(=O)NCC(c3cccs3)N(C)C)c2)cc1 (configuration not stated)	active
Nc1c(Br)cc2c3c(cccc13)-c1ccccc1-2	inactive
CN(C)S(=O)(=O)c1ccc2c(c1)/C(=C/c1cc3c([nH]1)CCCC3)C(=O)N2	active
Cc1oc2ccc(NS(=O)(=O)c3cccc4cccnc34)cc2c1C(=O)OC(C)C	active
CCN(CC)c1ccc2cc(C(=O)c3cccs3)c(=O)oc2c1	active

* * *

Test Name: compound fluorescence in GFP channel, mTEFS cells – imaging, mTEFS fibroblasts, cherry-pick, artefact control for X-chromosome reactivation project, dose response (AID 743396);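 for % fluorescent cells increase: raw share of Hoechst-counted cells scored GFP positive without control normalization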
Stated Conditions: mTEFS fibroblasts autofluorescence, GFP-channel imaging, 3 days; at 19.5 µM (top of the series); cells pretreated with 5-aza-dC
In this section we review reported % fluorescent cells increase values for a set of compounds.
Recorded Endpoint: % fluorescent cells increase (%)

Compound	Recorded Endpoint	Uom	Recorded Measurement
O=[N+]([O-])c1ccc(S(=O)(=O)c2ccccc2)nc1	% fluorescent cells increase	%	-0.004
CCOc1ccc(NC(=S)NC(C)c2cccs2)cc1 (stereo not given)	% fluorescent cells increase	%	0
CC(=Nc1ccc(Cl)cc1N)c1c(O)cc(C)oc1=O	% fluorescent cells increase	%	0.643
O=C(OCc1cccc(F)c1)c1ccc2c(=O)n3c(nc2c1)CCC3	% fluorescent cells increase	%	0.065
Cc1ccccc1C1c2[nH]c3ccccc3c2CCN1Cc1cccn1-c1ncccn1 (stereo not given)	% fluorescent cells increase	%	0.002
CC(C)C#Cc1ccc([C@@H]2[C@@H](CO)N3C(=O)CN(C(=O)c4ccc5c(c4)OCO5)C[C@H]23)cc1	% fluorescent cells increase	%	-0.166
Cc1cc(C(=O)Nc2ccc(Cl)c(S(=O)(=O)N3CCOCC3)c2)c2ccccc2n1	% fluorescent cells increase	%	0.116
Cc1c(/C=N\NC(=O)c2cc3ccccc3o2)c2ccccc2n1C	% fluorescent cells increase	%	0
Nc1ccccc1Nc1cc(-c2ccccc2)[nH]n1	% fluorescent cells increase	%	2.52
COc1ccc(S(=O)(=O)Nc2cccc3c2O[C@H](CN(C)S(=O)(=O)c2cn(C)cn2)[C@H](C)CN([C@H](C)CO)C3=O)cc1	% fluorescent cells increase	%	0.016

* * *

In this section we review reported % fluorescent cells increase values for a set of compounds.
Test Name: compound fluorescence in GFP channel, mTEFS cells – imaging, mTEFS fibroblasts, cherry-pick, artefact control for X-chromosome reactivation project, dose response (AID 743396);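 for % fluorescent cells increase: raw share of Hoechst-counted cells scored GFP positive without control normalization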
Stated Conditions: mTEFS fibroblasts autofluorescence, GFP-channel imaging, 3 days; at 19.5 µM (top of the series); cells pretreated with 5-aza-dC
Calls of active or inactive are those of the source.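 The calls were made as follows: active = fitted curve reaches a 40% rise in fluorescent cells at or below the top valid dose; inactive = opposite-direction effect, or the rest.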
Recorded Endpoint: % fluorescent cells increase

Structure As Smiles	Recorded Endpoint	Recorded Measurement
Cc1ccsc1/C=N/n1c(-c2cc(-c3ccccc3)n[nH]2)n[nH]c1=S	% fluorescent cells increase	0% (inactive)
O=C(CNC(=O)c1ccccc1F)OCc1nc2ccccc2s1	% fluorescent cells increase	0.037% (inactive)
COC(=O)c1c(NC(=O)c2ccc(C)cc2)csc1C	% fluorescent cells increase	-0.006% (inactive)
CCc1ccc(CCC(=O)Nc2ncc(Cc3ccccc3Cl)s2)o1	% fluorescent cells increase	-0.007% (inactive)
NNc1nc2c(-c3ccc(F)cc3)nnn2c2ccccc12	% fluorescent cells increase	0.008% (inactive)
CCOC(=O)c1c(C)[nH]c(N=Nc2ccc(OC)cc2)c1C	% fluorescent cells increase	0.028% (inactive)

* * *

Tested on: mTEFS fibroblasts autofluorescence, GFP-channel imaging, 3 days
Test Name: compound fluorescence in GFP channel, mTEFS cells – imaging, mTEFS fibroblasts, cherry-pick, artefact control for X-chromosome reactivation project, dose response (AID 743396)
Stated Conditions: cells pretreated with 5-aza-dC
Active and inactive are the calls of the source.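 The calls were made as follows: active = fitted curve reaches a 40% rise in fluorescent cells at or below the top valid dose; inactive = opposite-direction effect, or the rest.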
Classes used: 1.0 (active), 0.0 (inactive)

Molecule	Class Name
CCN1/C(=C\c2ccc3cc(C)ccc3[n+]2CC)Sc2cc(C)c(C)cc21	1.0
CC(=O)Oc1cccc(N2C(=O)c3cccc4c([N+](=O)[O-])ccc(c34)C2=O)c1	0.0
COc1ccccc1N1N=C(c2ccc([N+](=O)[O-])cc2)CC1c1ccccc1 (configuration not stated)	1.0
CC(=NNc1nc2ccccc2o1)c1cc2ccccc2cn1	1.0
NC(=O)c1c(NC(=O)c2ccccc2)sc2c1CCN(Cc1ccccc1)C2	0.0
COc1cc2c3nnc(-c4ccc(F)cc4)c-3cn(Cc3ccccc3)c2cc1OC	1.0
O=[N+]([O-])c1ccc(N/N=C/c2sc(N3CCOCC3)nc2-c2ccccc2)c(S(=O)(=O)Nc2ccc(Cl)cc2)c1	0.0
CC(O)CN(CC(C)O)c1ccc2c(c1)Cc1cc([N+](=O)[O-])ccc1-2 (configuration not stated)	0.0
CCC(CO)[n+]1c(C)cc(/C=C2\Sc3ccccc3N2Cc2ccccc2)cc1C (configuration not stated)	1.0
CCN1/C(=C/c2ccc3cc(C)ccc3[n+]2CC)Sc2ccccc21	1.0
Cc1cc(N/N=C/c2ccc([N+](=O)[O-])o2)nc2ccccc12	1.0
Cc1ccc(Cl)c2c(N=Nc3ccccc3)c(O)[nH]c12	0.0
CCN(CC)c1ccc2cc(-c3nc(-c4ccc(OC)cc4)cs3)c(=O)oc2c1	1.0
Cc1cc(C)cc(NC(=O)/C=C/c2ccc([N+](=O)[O-])s2)c1	1.0
COc1cc2c3nnc(-c4ccccc4)c-3cn(Cc3ccccc3F)c2cc1OC	1.0
c1ccc(-c2cnn3c(-c4ccccc4)c(-c4ccccc4)nc3n2)cc1	1.0
Cn1c(=O)[nH]c(=O)c2c1nc(SCCN1CCOCC1)n2CCCc1ccccc1	1.0
Nc1ccc2c3c(cccc13)-c1ccccc1-2	1.0
COc1ccc(C(=O)c2sc3nc(C)cc(-c4cccs4)c3c2N)cc1	1.0
Nc1[nH]c2cc([N+](=O)[O-])ccc2c1-c1ccccn1	1.0
COc1cc2c3nnc(-c4ccc(F)cc4)c-3cn(Cc3ccccc3F)c2cc1OC	1.0
COc1ccc(C(=O)Nc2c(F)c(F)c(F)c(F)c2F)cc1OC	0.0
CCN(CC)c1ccc(/C=C/c2cc(-c3ccccc3)c3ccccc3n2)cc1	1.0
CC(C)CCN1C(=O)c2cccc3c(N)ccc(c23)C1=O	1.0
Cc1ccc(C(=O)N/C(=C/c2ccc(-c3ccc([N+](=O)[O-])cc3)o2)C(=O)NCCCN(C)C)cc1	1.0
COc1cc(N2CCCC2)c(OC)cc1/C=C1/NC(=S)NC1=O	0.0
Nc1c(C(=O)c2cccs2)sc2nsc(SCCN3CCCCC3)c12	1.0
CC(C)N1CCc2c(sc(NC(=O)c3ccc4ccccc4c3)c2C(N)=O)C1	1.0
N#CC(C#N)=C1C=C2C=C(N3CCCCCC3)CCC2CC1 (configuration not stated)	1.0
O=[N+]([O-])c1ccc(N/N=C/c2ccc[nH]2)cc1	0.0
CCN1/C(=C/C=C/c2oc3ccc(-c4ccccc4)cc3[n+]2CC)Oc2ccc(-c3ccccc3)cc21	1.0
O=S(=O)(Nc1cc2nc3ccccc3nc2n1Cc1ccccc1)c1ccc(Cl)cc1	0.0
O=c1[nH]c(=O)n([C@H]2C[C@H](O)[C@@H](CO)O2)cc1C(F)(F)F	0.0
Cc1nnc(N2C(=O)c3cccc4c([N+](=O)[O-])ccc(c34)C2=O)s1	0.0
COC(=O)C1=C(C)NC(C)=C(C(=O)OC)C1C(=O)OCC(=O)c1ccc(F)cc1	0.0
Cc1c2c(cc3c1[nH]c1ccccc13)C=NCC2	1.0
Cc1cccc(NC(=O)/C=C/c2ccc([N+](=O)[O-])s2)c1	1.0
CCN1CCc2c(sc(NC(=O)c3ccc4ccccc4c3)c2C(N)=O)C1	1.0
COc1ccc(N2CCN(C(=O)c3cc4c(s3)-c3ccccc3OC4)CC2)cc1	0.0
O=[N+]([O-])c1ccc(N2N=C(c3ccccc3)CC2c2ccccc2O)cc1 (configuration not stated)	1.0
CCOC(=O)/C(=C/C=C1\Sc2cc(C)c(C)cc2N1CC)C(C)=O	1.0
CCCCN(C)C1=CC2=CC(=C(C#N)C#N)CCC2CC1 (configuration not stated)	1.0
